- Assay Details: qHTS Assay for Lipid Storage Modulators in Drosophila S3 Cells;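 also: cells counted by Cell Tracker Red CMTPX staining in the red channel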
- Test Parameters: BODIPY lipid droplet fluorescence, 18-24 h, cells fed with added oleic acid; measured here: cell count max response
Screen size: about 320,000 compounds; about 2,100 (0.66%) were called active. About 53% were inconclusive and are not listed. For the sample, actives were picked, then their nearest neighbours and some compounds at random.
Property Measured: cell number change (%)

| Molecule | Property Measured | Reported Measurement |
| --- | --- | --- |
| C=CCn1c(O)c(C(CC)=NCCN2CCN(C(=S)NC)CC2)c(=O)[nH]c1=O | cell number change | -0.0083 |
| CCCCCCN=C(C)c1c(O)n(CCCC)c(=O)[nH]c1=O | cell number change | 0.489 |
| CCCCn1c(O)c(C(C)=NCCCN(CC)CC)c(=O)[nH]c1=O | cell number change | -0.0737 |
| COc1cccc(NC2=NCCCS2)c1 | cell number change | 15 |
| O=C(c1cccc2ccccc12)C1CCCN(Cc2ccon2)C1 (stereo unspecified) | cell number change | 0.85 |
| CC12CN3CCN(CC(C3)/C1=N/NC(N)=O)C2 | cell number change | 0.944 |
